src = ChEMBL document CHEMBL1201862

Tested on: HCC 2998
Assay: NCI tumour cell line growth inhibition, 48 h
The source made the active and inactive calls. Rule as the data show it: active = GI50 up to about 1.1 µM and inactive = higher.
# GI50 values compiled below

Look over these answered cases.
The reported value for "Cc1cc(=O)oc2cc(OC(=O)Nc3ccc(Cl)c(Cl)c3)ccc12" in terms of GI50 is 19.4 µM (inactive)

The reported value for "CCOP(=O)(OCC)[C@H]1OC(C)(C)O[C@@H]1CO" in terms of GI50 is > 100 µM (inactive)

The reported value for "COc1nn(Cc2ccccc2F)c2ccc([N+](=O)[O-])cc12" in terms of GI50 is > 100 µM (inactive)

The reported value for "ClCc1ccc(C2OCCO2)cc1" in terms of GI50 is 17.8 µM (inactive)

The reported value for "Cc1cc2nc(N3C(=O)/C(=C/c4ccc(Oc5ccccc5)cc4)N=C3c3ccccc3)sc2cc1C" in terms of GI50 is 40 µM (inactive)

Others:
The reported value for "CC(=O)c1sc2c(c1OC(=O)c1ccc(Cl)cc1)c(=O)n(-c1ccccc1)c(=S)n2-c1ccccc1" in terms of GI50 is 19.1 µM (inactive)

The reported value for O=C1NC2CCCCC2N=C1CC(=O)c1ccc(Br)cc1 (stereo not given) in terms of GI50 is 39 µM (inactive)

The reported value for "CCOC(=O)C1=NN(c2ccccc2)C(=O)/C1=C\NC(=S)C(N)=S" in terms of GI50 is 43.4 µM (inactive)

The reported value for CC(=O)OCC1OC(NC(=S)CCSc2nc3ccccc3c(=O)n2-c2ccccc2)C(OC(C)=O)C(OC(C)=O)C1OC(C)=O (stereo not given) in terms of GI50 is 39.3 µM (inactive)

The reported value for "O=C(O)c1cc([N+](=O)[O-])cc2c(=O)c3cnccc3[nH]c12" in terms of GI50 is > 100 µM (inactive)

====

System: COLO 205
Experiment: NCI tumour cell line growth inhibition, 48 h
The source made the active and inactive calls. Cut-off read from the data, not from the text of the source: active = GI50 up to about 1.1 µM and inactive = higher. Numbered stars: 1 amine (or outer) side, 2 acyl side, 3 side chain; on linkers, the order of the positions; unused ones are H or OH. Bridge positions count the residues as written; N and C are the ends. Square brackets hold non-standard residues; d marks the D form. Peptide text beside a SMILES is read from it. * marks the point of attachment. ξ: configuration not given here. X33 = O=C(C(CCCCNO[*:3])N[*:1])[*:2]; Fmoc = O=C(OCC1c2ccccc2-c2ccccc21)*; ξW = NC(Cc1c[nH]c2ccccc12)C(=O)O; ξP = O=C(O)C1CCCN1
Measurement Name: GI50

Look over these answered cases.
The reported value for "c1csc(-c2nccc3c2[nH]c2ccccc23)c1" in terms of GI50 is 14.8 µM (inactive)

The reported value for CC1OC(n2cc(C(F)(F)F)c(=O)[nH]c2=O)C=CC1=O (stereo unspecified) in terms of GI50 is 19.3 µM (inactive)

The reported value for COc1cccc(C2c3cc4c(cc3OC(N3CCCC3)C2c2ccccc2)OCO4)c1O (stereo unspecified) in terms of GI50 is 7.24 µM (inactive)

The reported value for "COC(=O)C1=C(C(=O)OC)SC2(S1)C1=C(CCCC1)SC(C(=O)OC)=C2C(=O)OC" in terms of GI50 is 9.25 µM (inactive)

Others:
The reported value for NC(=O)CNC(=O)C1CCCN1C(=O)C1CCCCNOC(=O)CC[C@@H](NC(=O)OCC2c3ccccc3-c3ccccc32)C(=O)NC(Cc2c[nH]c3ccccc23)C(=O)N1 (stereo partly specified) (Fmoc-[dE][ξW][X33][ξP]G-NH2; ester 1-3) in terms of GI50 is > 100 µM (inactive)

The reported value for CCO/C=N/C1=C(C#N)C(c2ccc(OC)c(OC)c2)c2c(-c3ccccc3)nn(-c3ccccc3)c2O1 (stereo unspecified) in terms of GI50 is 13.1 µM (inactive)

The reported value for COC(=O)C(Cc1nc2ccc(Cl)cc2nc1O)/C(=N/O)C(=O)Nc1cccc(Cl)c1C (stereo unspecified) in terms of GI50 is > 100 µM (inactive)
